# Tested on: Root-knot nematodes Meloidogyne spp. juveniles (J2)
# protocol: whole plant or invertebrate
# Format: in vivo
# reported-conditions: 500 ppm; 70-100 J2 juveniles; 22±2° C., 70±5% RH; dead/inactive counted at 24, 48, 72 and 96 hours (time of rating not stated)
assay-endpoint: % Mortality Rating

Sample records with % Mortality Rating:
INSERT INTO assay_data (molecule, reported_measurement) VALUES
  ('N=C(N)NCCCC(N=CC=Cc1ncco1)C(=O)O (centres unmarked) [Example 53]', 'C (0 to 49)'),
  ('COc1c(C=CC=NC(CCCNC(=N)N)C(=O)O)ccc2[nH]cnc12 (centres unmarked) [Example 61]', 'C (0 to 49)'),
  ('N=C(N)NCCCC(N=CC=Cc1ccc[nH]1)C(=O)O (centres unmarked) [Example 54]', 'B (50-69)'),
  ('N=C(N)NCCCC(N=CC=Cc1ccncn1)C(=O)O (centres unmarked) [Example 43]', 'A (70-100)'),
  ('N=C(N)NCCCC(N=CC=Cc1ccn[nH]1)C(=O)O (centres unmarked) [Example 50]', 'B (50-69)'),
  ('CC(C=NC(CCCNC(=N)N)C(=O)O)=Cc1ccc(C(F)(F)F)cc1 (centres unmarked) [Example 29]', 'B (50-69)'),
  ('CCC(C=NC(CCCNC(=N)N)C(=O)O)=Cc1cccs1 (centres unmarked) [Example 47]', 'B (50-69)'),
  ('C=CCc1cccc(C=CC=NC(CCCNC(=N)N)C(=O)O)c1OC (centres unmarked) [Example 37]', 'B (50-69)'),
  ('N=C(N)NCCCC(N=CC=Cc1cnccn1)C(=O)O (centres unmarked) [Example 44]', 'B (50-69)'),
  ('N=C(N)NCCCC(N=CC=Cc1ccc2ccoc2c1)C(=O)O (centres unmarked) [Example 62]', 'B (50-69)');

Requested read-out: % Mortality Rating. Entry: C=CCc1ccc(C=CC=NC(CCCNC(=N)N)C(=O)O)cc1 (centres unmarked) [Example 34]
B (50-69)

Requested read-out: % Mortality Rating. Entry: N=C(N)NCCCC(N=CC=Cc1ccccc1C(F)(F)F)C(=O)O (centres unmarked) [Example 30]
B (50-69)

Requested read-out: % Mortality Rating. Entry: C=CCc1ccc(C=CC=NC(CCCNC(=N)N)C(=O)O)c(OC)c1 (centres unmarked) [Example 38]
B (50-69)

----------
# mortality at 500 ppm per record follows
# Tested on: Root-knot nematodes Meloidogyne spp. juveniles (J2)
# protocol: whole plant or invertebrate
# Type: in vivo
# reported-conditions: Meloidogyne, 70-100 J2 juveniles, 22±2° C., 70±5% RH, dead/inactive counted at 24, 48, 72 and 96 hours (time of rating not stated)

Sample records with mortality at 500 ppm:
INSERT INTO results (compound_smiles, reported_measurement) VALUES
  ('CCCCCC(/C=N/[C@@H](CCCNC(=N)N)C(=O)O)=C\c1ccccc1', '0 to 49%'),
  ('CCC(/C=N/[C@@H](CCCNC(=N)N)C(=O)O)=C\c1ccccc1', '70 to 100%'),
  ('CC(/C=N/[C@@H](CCCNC(=N)N)C(=O)O)=C\c1ccco1', '50 to 69%'),
  ('N=C(N)NCCC[C@H](/N=C/C=C/c1ccco1)C(=O)O', '70 to 100%'),
  ('COc1ccc(/C=C/C=N/[C@@H](CCCNC(=N)N)C(=O)O)cc1', '70 to 100%');

Next up:
Requested read-out mortality at 500 ppm, target or system Root-knot nematodes Meloidogyne spp. juveniles (J2), entry CCC(/C=N/[C@@H](CCCNC(=N)N)C(=O)O)=C\c1ccco1
0 to 49%
